Values were extracted from PubChem BioAssay (NCI).

Test system: KM12 colon
assay.explanation: NCI-60 one-dose screen, 48 h (100 = growth as untreated, 0 = no growth, -100 = all killed)
conditions: 10 µM
About 83,000 compounds went through this panel and 20% of them were active in at least one assay; those are over-represented in the sample as a whole. Activity calls are given as the source filed them. How the source made its calls: active means growth percent below 10; inactive means the rest.

compound	growth
CC1OC(Oc2c(-c3ccc(O)c(O)c3)oc3cc(O)cc(O)c3c2=O)C(O)C(O)C1O (stereo unspecified)	102% (inactive)
Cc1cccc(C(=O)N(C(C)C)C(C)C)c1	104% (inactive)
O=S(=O)(O)c1cc(O)c2c(N=Cc3ccccc3O)c(S(=O)(=O)O)ccc2c1	103% (inactive)
O=[N+]([O-])c1ccccc1N=Nc1ccc(O)cc1O	110% (inactive)
Cc1ccc(Cl)cc1NC(=O)N(C)CCO	120% (inactive)
C=CCOC(=O)C(=O)OCC=C	102% (inactive)

----------
Tested on: CCRF-CEM leukemia
assay.explanation: NCI-60 one-dose screen, 48 h (100 = growth as untreated, 0 = no growth, -100 = all killed)
conditions: 10 µM
Compounds without any hit were thinned out: in the full panel of roughly 83,000, 20% have a hit. Calls of active or inactive are those of the source. How the source made its calls: active means growth percent below 10; inactive means the rest.

compound	growth
CCCCNC1(C#N)CCN(Cc2ccccc2)CC1	102% (inactive)
CC(C)=NNc1ccc([N+](=O)[O-])cc1[N+](=O)[O-]	42.2% (inactive)
O=C(Cc1nc2ccc([N+](=O)[O-])cc2nc1CC(=O)c1cccnc1)c1cccnc1	48.7% (inactive)
O=C(O)CCCCNC(=O)c1ccccc1	110% (inactive)
Cc1nc2c(ccc3ccccc32)s1	85.7% (inactive)
CCCCC1(CC)COC(CCC)OC1 (stereo not drawn)	102% (inactive)
c1ncc2[nH]cnc2n1	88.7% (inactive)
CC(C)(C)c1cc(O)c(C(C)(C)C)cc1O	80.4% (inactive)
Cc1cc(C)c(N)c(S(=O)(=O)O)c1	86% (inactive)
COc1cc2c3cc1Oc1c(OC)c(OC)cc4c1C(Cc1ccc(O)c(c1)Oc1ccc(cc1)CC3N(C)CC2)N(C)CC4 (stereo not drawn)	2.18% (active)
O=c1[nH]cc(Cl)cc1O	49% (inactive)
CC(C)C1CCCCC1O (stereo not drawn)	99.3% (inactive)
CN(C)c1ccc(S(=O)(=O)O)cc1	95.9% (inactive)

----------
molecules and their reported growth
System: U251 CNS
assay.explanation: NCI-60 one-dose screen, 48 h (100 = growth as untreated, 0 = no growth, -100 = all killed)
conditions: 10 µM
About 83,000 compounds went through this panel and 20% of them were active in at least one assay; those are over-represented in the sample as a whole.
measurement.name: growth (%)

molecule	measured.on	measurement.name	observed.result
O=c1[nH]cc(Cl)cc1O	U251 CNS	growth	88.6
CC(C)=C(NC(=O)c1ccccc1)C(=O)O	U251 CNS	growth	114
CC(=O)Cc1ccc(-c2ccccc2)cc1	U251 CNS	growth	98.3
CCOC(=O)c1ccc(NC(=S)P(=O)(c2ccccc2)c2ccccc2)cc1	U251 CNS	growth	99.2
FC(F)(F)c1ccc2c(c1)N(CCCN1CCN(C3CC3)CC1)c1ccccc1S2	U251 CNS	growth	25.8
NC(C(=O)O)c1ccc([N+](=O)[O-])cc1 (centres undefined)	U251 CNS	growth	115
Nc1ccc(N=Nc2ccc(O)cc2)c(N)n1	U251 CNS	growth	76.6
C=CCOC(=O)C(=O)OCC=C	U251 CNS	growth	106
NC(=O)N/N=C\c1ccco1	U251 CNS	growth	101
CCOC(=O)c1cc(/C=C/c2ccc(Cl)cc2Cl)on1	U251 CNS	growth	6.71
c1ccc(Sc2ccccc2)cc1	U251 CNS	growth	94.5
CC1CC(O)CC(C)(C)C1 (centres undefined)	U251 CNS	growth	101
CN1C(=O)CN2CCc3ccccc3C2c2cc(Cl)ccc21 (centres undefined)	U251 CNS	growth	103
Cc1ccc(C(O)C2CC2)cc1 (centres undefined)	U251 CNS	growth	100
CCOC(=O)CNN	U251 CNS	growth	95.7
Cc1c(O)cccc1O	U251 CNS	growth	98.7
Cc1cc2nc(CC(=O)c3ccccc3)c(=O)[nH]c2cc1C	U251 CNS	growth	95.4
C=C1CC/C=C(\C)C(=O)C[C@@H]2[C@@H]1CC2(C)C	U251 CNS	growth	100
COC(=O)c1ccccc1N(C)C	U251 CNS	growth	112
Oc1ccccc1-c1nnco1	U251 CNS	growth	82.9
CCC(C)(C)C1CCC(O)CC1 (centres undefined)	U251 CNS	growth	107
COC(=O)/C=C1\Sc2cc(F)ccc2NC1=O	U251 CNS	growth	93.2
CCOc1ccc(/C=C/C(=O)c2ccccc2)cc1	U251 CNS	growth	86.7
O=c1[nH]c(O)c(/C=C2/C=Nc3ccccc32)[nH]1	U251 CNS	growth	103
OC1CCCc2ccccc21 (centres undefined)	U251 CNS	growth	108
Cc1cc(NC(=O)CSCC(=O)O)no1	U251 CNS	growth	101
CCCNC(=O)c1ccc(S(N)(=O)=O)cc1	U251 CNS	growth	103
O=C(O)c1cc([N+](=O)[O-])ccc1Cl	U251 CNS	growth	106
O=C(Cc1nc2ccc([N+](=O)[O-])cc2nc1CC(=O)c1ccccc1)c1ccccc1	U251 CNS	growth	49.2
Nc1ncnc2[nH]ncc12	U251 CNS	growth	42.8
O=C(O)C(c1ccccc1)C(O)c1ccccc1 (centres undefined)	U251 CNS	growth	91.9
NCCC(=O)c1ccc(Cl)cc1	U251 CNS	growth	105
O=C1C[C@H](c2ccccc2)[C@H](c2ccccc2)C1	U251 CNS	growth	103
CC(=O)N(C)c1ccc([N+](=O)[O-])cc1	U251 CNS	growth	101
c1csc(-c2cc(-c3cc(-c4cccs4)[nH]n3)n[nH]2)c1	U251 CNS	growth	106
Cc1c(C(=O)O)c(=O)n(-c2ccccc2)n1C	U251 CNS	growth	115
C[N+](C)=c1ccc2nc3c(cc(Nc4ccccc4)c4ccccc43)oc-2c1	U251 CNS	growth	23.4
CCOC(=O)c1cc2cccc(OC)c2oc1=O	U251 CNS	growth	105
O=C(O)CCCC(=O)O	U251 CNS	growth	94.3
Oc1ccc2c(c1)OCC1(O)Cc3cc(O)c(O)cc3C21 (centres undefined)	U251 CNS	growth	90.7
CCCC(C)OCC(=O)O (centres undefined)	U251 CNS	growth	93.5
C#CCSc1nnnn1-c1ccc(Br)c(C)c1	U251 CNS	growth	81.8
CCCCC1C(=O)N(c2ccccc2)N(c2ccccc2)C1=O	U251 CNS	growth	105
O=[N+]([O-])c1ccc(S(=O)(=O)NN=C2CCCCC2)cc1	U251 CNS	growth	111
Brc1cnc2ccccc2c1	U251 CNS	growth	103
O/N=C/c1ccc(O)cc1O	U251 CNS	growth	90.6
O=[N+]([O-])c1ccc(O)c(S(=O)(=O)O)c1	U251 CNS	growth	102
Nc1nc2c(c(-c3nc(N)nc4c3CCc3ccccc3-4)n1)CCc1ccccc1-2	U251 CNS	growth	114
COC(=O)c1cc(-c2ccc(Cl)c(Cl)c2)[nH]c(=O)c1C#N	U251 CNS	growth	97.3
CC(=O)c1sc2c(c1OC(=O)c1ccc(Cl)cc1Cl)c(=O)n(-c1ccccc1)c(=S)n2-c1ccccc1	U251 CNS	growth	1.6
COc1ccccc1C1OC2=Nc3cc(C)c(C)cc3NC2C1=O (centres undefined)	U251 CNS	growth	53
CN(C)CCC(=O)c1ccc(O)cc1	U251 CNS	growth	100
CC(C)NC(=O)OCc1c(COC(=O)NC(C)C)c(-c2ccc(Cl)c(Cl)c2)n2c1SCC2	U251 CNS	growth	43.3
Nc1nc(N)c(N=Nc2ccc(C(=O)O)cc2)c(N)n1	U251 CNS	growth	103

----------
System: NCI-H460 lung
assay.explanation: NCI-60 one-dose screen, 48 h
conditions: 10 µM
This is part of a sample that, as a whole, favours compounds with a hit. Of some 83,000 tested, about 20% had one in any assay. Active and inactive are the calls of the source. The calls were made as follows: active = growth percent below 10; inactive = the rest.
Possible outcomes: active, inactive

molecule	label.value
CC1(C)/C(=C\CO)C2CCC1C2 (stereo unspecified)	inactive
O/N=C/c1ccc(O)cc1O	inactive
COC(=O)c1[nH]c(=O)c(C#N)c(C(=O)OC)c1C(=O)c1ccccc1	inactive
Cc1cc(N)c(S(=O)(=O)O)c(N)c1	inactive
Cc1cc(/C=C/c2ccc3cc(N(C)C)ccc3[n+]2C)c(C)n1-c1ccccc1	active
O=C1OC[C@H]2[C@H](c3ccc(O)c(O)c3)c3cc(O)c(O)cc3C[C@H]12	inactive
CC[N+](C)(CC)CCO	inactive
COC(=O)Nc1cccc(Cl)c1OC	inactive
CCOc1ccc2[nH]c(=S)sc2c1	inactive
O=C(Nc1cccc(NC(=O)Nc2cc(C(F)(F)F)ccc2Cl)c1)Nc1cc(C(F)(F)F)ccc1Cl	active
O=C(OCC(O)C1OC(c2ccccc2)OC(COC(=O)c2ccccc2)C1O)c1ccccc1 (stereo unspecified)	inactive
O=C(O)CCC(NC(=O)OCc1ccccc1)C(=O)O (stereo unspecified)	inactive
Cc1ccccc1C1N=C2Oc3ccccc3C=C2C(=O)N1 (stereo unspecified)	inactive
CCc1nc(N)nc(N)c1-c1ccc(Cl)cc1	inactive
CC1CCC2C(C)(C)C3CC12CC1OC13C (stereo unspecified)	inactive
COc1cc2nc3cc([N+](=O)[O-])ccc3c(Cl)c2cc1OC	inactive
O=C(O)c1ccc(S(=O)(=O)O)cc1	inactive
CSC(=N\N=C\c1ccc(N(C)C)cc1)/N=C/N(C)C	inactive
CNc1nc(NC)c2cn[nH]c2n1	inactive
O=C(Cc1ccc(OCc2ccccc2)cc1)NCc1ccc2c(c1)OCO2	inactive
COc1cc(OC)c2ccc(=O)oc2c1	inactive
O=c1[nH]c(O)c(/C=C2/C=Nc3ccccc32)[nH]1	inactive
Nc1ccc(N=Nc2ccc(S(=O)(=O)O)cc2)c2ccccc12	inactive
Nc1ncnc2c1nc(N)n2C1OC(CO)C(O)C1O (stereo unspecified)	active
C=CCNc1ccccc1	inactive
O=c1[nH][nH]c(=O)c2cc([N+](=O)[O-])ccc12	inactive
